Please provide measured Papp A→B at 2 h, 10 µM for the entries that follow.
assay-details: Caco-2 permeability of ADC payload
Type: in vitro ADME
condition-context: human, Caco-2; payload, apical to basolateral, 2 hours; read-out: Permeability Mean Caco-2 A-B Perm (10e−6 cm/s)
One number for each entry, in ×10⁻⁶ cm/s.

chemical-smiles	Papp A→B at 2 h, 10 µM, ×10⁻⁶ cm/s
CC(=O)N1CCC(n2nnc3c(F)cc(/C=C(\C)[C@H]4OC(=O)C[C@H](O)CC[C@H](C)[C@@H](OC(=O)N5CCNCC5)/C=C/[C@@H]4C)cc32)CC1	0.08

Give the measured Papp A→B at 2 h, 10 µM for CC[C@H](O)[C@@H](C)[C@H]1O[C@@H]1C[C@@](C)(O)/C=C/C=C(\C)[C@H]1OC(=O)C[C@H](O)CC[C@@](C)(OC(=O)N2CCNCC2)[C@@H](OC(C)=O)/C=C/[C@@H]1C
0.138

====

Please provide measured efflux ratio at 2 h, 10 µM for the entries that follow.
assay-details: Caco-2 permeability of ADC payload
Assay type: in vitro ADME
condition-context: human; payload, Caco-2, B−A/A−B

Solved entries:
compound	result-type	value-reported
CC[C@H](O)[C@@H](C)[C@H]1O[C@@H]1C[C@@](C)(O)/C=C/C=C(\C)[C@H]1OC(=O)C[C@H](O)CC[C@@](C)(OC)[C@@H](OC(=O)N2CCNC(CCC(=O)O)C2)/C=C/[C@@H]1C (some centres unmarked)	efflux ratio at 2 h, 10 µM	1.14
CC[C@H](O)[C@@H](C)[C@H]1O[C@@H]1C[C@@](C)(O)/C=C/C=C(\C)[C@H]1OC(=O)C[C@H](O)CC[C@@](C)(OC)[C@@H](OC(=O)N(C)CCNC)/C=C/[C@@H]1C	efflux ratio at 2 h, 10 µM	2.38
CC(=O)N1CCC(n2nnc3c(F)cc(/C=C(\C)[C@H]4OC(=O)C[C@H](O)CC[C@H](C)[C@@H](OC(=O)N5CCN(C)CC5)/C=C/[C@@H]4C)cc32)CC1	efflux ratio at 2 h, 10 µM	7.84
C/C(=C\c1cc(F)cc(N2CCN(CC(=O)O)CC2)c1)[C@H]1OC(=O)C[C@H](O)CC[C@H](C)[C@@H](OC(=O)N2CCNCC2)/C=C/[C@@H]1C	efflux ratio at 2 h, 10 µM	4.08

Alright, here's another compound for you.
Give the value of efflux ratio at 2 h, 10 µM reported for the following: CC[C@H](O)[C@@H](C)[C@H]1O[C@@H]1C[C@H](C)/C=C/C=C(\C)[C@H]1OC(=O)C[C@H](O)CC[C@@](C)(OC)[C@@H](OC(=O)N2CCNCC2)/C=C/[C@@H]1C
23

====

Exercise: for every item that follows, state its recorded Perm. Mean Caco-2 B-A Perm.
Tested on: Caco-2 cells
assay-details: Caco-2 permeability of ADC payload
Assay type: in vitro ADME
condition-context: corresponding free payload, B-A

// solved cases for Perm. Mean Caco-2 B-A Perm follow
molecule	Perm. Mean Caco-2 B-A Perm
CC[C@H](O)[C@@H](C)[C@H]1O[C@@H]1C[C@@](C)(O)/C=C/C=C(\C)[C@H]1OC(=O)C[C@H](O)CC[C@@](C)(OC)[C@@H](OC(=O)N2CCNCC2)/C=C/[C@@H]1C (stereo in doubt) [D1]	2.05 10e−6 cm/s
CC[C@H](O)[C@@H](C)[C@H]1O[C@@H]1C[C@@](C)(O)/C=C/C=C(\C)[C@H]1OC(=O)C[C@H](O)CC[C@@](C)(OC(=O)N2CCNCC2)[C@@H](OC(C)=O)/C=C/[C@@H]1C	2.027 10e−6 cm/s
CC[C@H](O)[C@@H](C)C1OC1C[C@@](C)(O)/C=C/C=C(\C)[C@H]1OC(=O)C[C@H](O)CC[C@@](C)(OC(C)=O)[C@@H](OC(=O)N2CCNCC2)/C=C/[C@@H]1C (stereo in doubt)	1.79 10e−6 cm/s

Supply measured Perm. Mean Caco-2 B-A Perm of CC[C@H](O)[C@@H](C)[C@H]1O[C@@H]1C[C@@](C)(O)/C=C/C=C(\C)[C@H]1OC(=O)C[C@H](O)CC[C@@](C)(O)[C@@H](OC(=O)N2CCNCC2)/C=C/[C@@H]1C in your reply.
0.23 10e−6 cm/s
